B1: RIPK4 (parent)
chain: AAWQGHLPIVKLLAKQPGVSVNAQ

variants of: B1; assay: protein stability index of a GFP-peptide fusion (GPS, HEK-293T) (PSI 1-6); higher = more stable; conditions: c terminus: a fixed tail appended;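 further: lentivirally expressed fusions sorted by FACS into six bins by GFP to DsRed ratio, PSI derived from sequencing read proportions per bin multiplied by bin number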
Use satisfied when the recorded protein stability index is no lower than 2; use not satisfied when it is lower.

INSERT INTO assay_data (mutant_label, group_label) VALUES
  ('A1D', 'satisfied');

Query block: Has "G18R" a recorded protein stability index greater than or equal to 2?
Result block: not satisfied

Query block: Assess whether reported protein stability index for "W3R" sits at 2 or higher.
Result block: satisfied

Query block: Does the reported protein stability index for "K11M" fall at or above the 2 mark?
Result block: satisfied

Query block: Is reported protein stability index greater than or equal to 2 here: "A2H"
Result block: satisfied

Query block: Would you say "V21I" shows protein stability index at minimum 2?
Result block: satisfied

Query block: Textbook exercise: given the entry "P17C" , state whether its protein stability index is greater than or equal to 2.
Result block: not satisfied
